# System: HL-60
# method description: Effective concentration against HL-60/ADR cells using MRP-mediated MDR assay using 2 nM vincristine which results in 50% of the cells being killed in the presence of particular cytotoxic drug.
# Format: functional, cell-based
# condition summary: Homo sapiens
assay metric: EC50 (mg/L)
Answers are plain numbers, in mg/L.

Examples with their reported EC50 follow.
INSERT INTO measurements (molecule, reported_result) VALUES
  ('CCCCCCCO[C@@H]1[C@@H](O)[C@@H](OCc2ccccc2)O[C@H](CO)[C@H]1O', 10),
  ('CCCCCCCO[C@@H]1[C@@H](O)[C@@H](OCc2ccccc2)O[C@H](CC(C)C)[C@H]1OCc1ccc(OC)cc1', 1.8),
  ('CCCCCCCO[C@@H]1[C@@H](O)[C@@H](OCc2ccccc2)O[C@@H]2CO[C@@H](c3ccc(OC)cc3)O[C@@H]12', 2.5),
  ('CCCCCCCO[C@H]1[C@H](O)[C@@H](CC(C)C)O[C@H](OCc2ccccc2)[C@@H]1OCc1ccccc1', 2.5),
  ('CCCCCCCO[C@@H]1[C@@H](OCc2ccccc2)[C@@H](OCc2ccccc2)O[C@@H]2CO[C@@H](c3ccc(OC)cc3)O[C@@H]12', 2.5);

Would you mind giving EC50 for every molecule in the list below?
1. COc1ccc(CCN(C)CCCC(C#N)(c2ccc(OC)c(OC)c2)C(C)C)cc1OC (centres undefined)
2. CCCCCCCO[C@@H]1[C@@H](O)[C@@H](OCc2ccccc2)O[C@H](CC(C)C)[C@H]1OC
3. CCCCCCC[C@H]1OC(=O)C[C@@H](O)[C@H](Cc2ccccc2)N(C)C(=O)[C@H](C(C)C)OC(=O)[C@H]1C
4. CCCCCCCO[C@@H]1[C@@H](OCc2ccccc2)[C@@H](OCc2ccccc2)O[C@H](CO)[C@H]1OCc1ccc(OC)cc1
5. CCCCCCCO[C@@H]1[C@@H](OCc2ccccc2)[C@@H](OCc2ccccc2)O[C@H](CC(C)C)[C@H]1OC
6. CCCCCCCO[C@@H]1[C@@H](OCc2ccccc2)[C@@H](OCc2ccccc2)O[C@H](C=O)[C@H]1OCc1ccc(OC)cc1
7. CCCCCCCO[C@@H]1[C@@H](O)[C@@H](OCc2ccccc2)O[C@H](CC(C)C)[C@H]1O

Ans.
1. 1.8
2. 10
3. 0.7
4. 1.7
5. 18
6. 1.5
7. 3.5
